Data credit: patent US5312816A

study.target: Cathepsin D (Mus musculus, UniProt P18242)
Construct: azocasein assay pH 5.0
Sequence (P18242 65-410): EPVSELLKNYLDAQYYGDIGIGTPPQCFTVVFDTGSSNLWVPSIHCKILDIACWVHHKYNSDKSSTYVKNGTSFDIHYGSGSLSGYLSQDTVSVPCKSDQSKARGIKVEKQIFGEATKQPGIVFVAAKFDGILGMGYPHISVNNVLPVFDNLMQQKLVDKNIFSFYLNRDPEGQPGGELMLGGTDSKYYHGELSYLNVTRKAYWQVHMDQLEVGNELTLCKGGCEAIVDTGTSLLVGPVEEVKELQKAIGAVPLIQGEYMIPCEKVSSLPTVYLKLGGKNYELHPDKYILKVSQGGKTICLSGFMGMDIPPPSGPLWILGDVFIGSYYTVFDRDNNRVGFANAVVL
method.summary: Mouse macrophage cathepsin D activity
Assay type: cell-based
condition.notes: Table XVII; mouse macrophage, 60 min incubation; read-out: Cathepsin D pH 5.0 IC50
Counter-ions that a name gives are not always drawn.
Parameter: IC50. Scope: all listed entries.

{"molecule": "C[N+](C)(C)[BH2-]C(=O)O [Compound 22, sodium salt]", "study.target": "Cathepsin D (Mus musculus, UniProt P18242)", "IC50": "1920 nM"}
{"molecule": "CC(C)=O.C[N+](C)(C)[BH2-]C(=O)[O-].O=[N+]([O-])[O-].[Ca+2]", "study.target": "Cathepsin D (Mus musculus, UniProt P18242)", "IC50": "2380 nM"}
{"molecule": "C[N+](C)(C)[BH2-]C(=O)[O-].C[N+](C)(C)[BH2-]C(=O)[O-].NCCN.NCCN.[Cl-].[Co+3]", "study.target": "Cathepsin D (Mus musculus, UniProt P18242)", "IC50": "3830 nM"}
{"molecule": "CC#N.CO.C[N+](C)(C)[BH2-]C(=O)[O-].C[N+](C)(C)[BH2-]C(=O)[O-].C[N+](C)(C)[BH2-]C(=O)[O-].C[N+](C)(C)[BH2-]C(=O)[O-].C[N+](C)(C)[BH2-]C(=O)[O-].C[N+](C)(C)[BH2-]C(=O)[O-].O.O=[N+]([O-])[O-].[Cr+3].[Cr+3].[Cr+3].[O-2]", "study.target": "Cathepsin D (Mus musculus, UniProt P18242)", "IC50": "2490 nM"}
{"molecule": "C[N+](C)(C)[BH2-]C(=O)[O-].C[N+](C)(C)[BH2-]C(=O)[O-].C[N+](C)(C)[BH2-]C(=O)[O-].C[N+](C)(C)[BH2-]C(=O)[O-].C[N+](C)(C)[BH2-]C(=O)[O-].C[N+](C)(C)[BH2-]C(=O)[O-].O.O.O.[Cl-].[Fe+3].[Fe+3].[Fe+3].[O-2]", "study.target": "Cathepsin D (Mus musculus, UniProt P18242)", "IC50": "3390 nM"}

----------
study.target: Cathepsin D (Mus musculus)
Construct: azocasein assay pH 5.0
method.summary: Mouse hepatic lysosomal cathepsin D activity
Format: biochemical
condition.notes: read-out: Mouse Hepatic Cathepsin D IC50; Table XIX
Source text: 1. Cf1 male mouse hepatic 10% homogenates in 0.25M sucrose+0.001MEDTA,pH 7.2. Lysosomal Enzymes - free and total [triton X-100]. 2. Acid Cathepsin D -azocasein-pH 5.0, hydrolytic azo-peptide produce 366 nm. Cathepsin azo casein activity -
pIC50: −log10 of the molar value.

{"compound": "CC(C)[Si](OC[C@@H]1CC[C@H](n2ccc(N)[n+]([BH2-]C#N)c2=O)O1)(C(C)C)C(C)C [Compound 42]", "pIC50": 4.51}
{"compound": "CC(C)[Si](OC[C@H]1O[C@@H](n2cnc3c(=O)[nH]cnc32)C[C@@H]1O[Si](C(C)C)(C(C)C)C(C)C)(C(C)C)C(C)C [Compound 29]", "pIC50": 4.10}
{"compound": "CC(C)[Si](OC[C@H]1O[C@@H](n2cnc3c(N)ncnc32)C[C@@H]1O[Si](C(C)C)(C(C)C)C(C)C)(C(C)C)C(C)C [Compound 35]", "pIC50": 4.24}
{"compound": "CC(C)[Si](OC[C@H]1O[C@@H](n2ccc(N)[n+]([BH2-]C#N)c2=O)C[C@@H]1O[Si](C(C)C)(C(C)C)C(C)C)(C(C)C)C(C)C [Compound 40]", "pIC50": 4.57}
{"compound": "CC(C)[Si](OC[C@H]1O[C@@H](n2ccc(N)nc2=O)C[C@@H]1O[Si](C(C)C)(C(C)C)C(C)C)(C(C)C)C(C)C [Compound 38]", "pIC50": 4.22}
